- TESTED ON: Angiotensin-converting enzyme (Oryctolagus cuniculus)
- Sequence (P12822 whole entry): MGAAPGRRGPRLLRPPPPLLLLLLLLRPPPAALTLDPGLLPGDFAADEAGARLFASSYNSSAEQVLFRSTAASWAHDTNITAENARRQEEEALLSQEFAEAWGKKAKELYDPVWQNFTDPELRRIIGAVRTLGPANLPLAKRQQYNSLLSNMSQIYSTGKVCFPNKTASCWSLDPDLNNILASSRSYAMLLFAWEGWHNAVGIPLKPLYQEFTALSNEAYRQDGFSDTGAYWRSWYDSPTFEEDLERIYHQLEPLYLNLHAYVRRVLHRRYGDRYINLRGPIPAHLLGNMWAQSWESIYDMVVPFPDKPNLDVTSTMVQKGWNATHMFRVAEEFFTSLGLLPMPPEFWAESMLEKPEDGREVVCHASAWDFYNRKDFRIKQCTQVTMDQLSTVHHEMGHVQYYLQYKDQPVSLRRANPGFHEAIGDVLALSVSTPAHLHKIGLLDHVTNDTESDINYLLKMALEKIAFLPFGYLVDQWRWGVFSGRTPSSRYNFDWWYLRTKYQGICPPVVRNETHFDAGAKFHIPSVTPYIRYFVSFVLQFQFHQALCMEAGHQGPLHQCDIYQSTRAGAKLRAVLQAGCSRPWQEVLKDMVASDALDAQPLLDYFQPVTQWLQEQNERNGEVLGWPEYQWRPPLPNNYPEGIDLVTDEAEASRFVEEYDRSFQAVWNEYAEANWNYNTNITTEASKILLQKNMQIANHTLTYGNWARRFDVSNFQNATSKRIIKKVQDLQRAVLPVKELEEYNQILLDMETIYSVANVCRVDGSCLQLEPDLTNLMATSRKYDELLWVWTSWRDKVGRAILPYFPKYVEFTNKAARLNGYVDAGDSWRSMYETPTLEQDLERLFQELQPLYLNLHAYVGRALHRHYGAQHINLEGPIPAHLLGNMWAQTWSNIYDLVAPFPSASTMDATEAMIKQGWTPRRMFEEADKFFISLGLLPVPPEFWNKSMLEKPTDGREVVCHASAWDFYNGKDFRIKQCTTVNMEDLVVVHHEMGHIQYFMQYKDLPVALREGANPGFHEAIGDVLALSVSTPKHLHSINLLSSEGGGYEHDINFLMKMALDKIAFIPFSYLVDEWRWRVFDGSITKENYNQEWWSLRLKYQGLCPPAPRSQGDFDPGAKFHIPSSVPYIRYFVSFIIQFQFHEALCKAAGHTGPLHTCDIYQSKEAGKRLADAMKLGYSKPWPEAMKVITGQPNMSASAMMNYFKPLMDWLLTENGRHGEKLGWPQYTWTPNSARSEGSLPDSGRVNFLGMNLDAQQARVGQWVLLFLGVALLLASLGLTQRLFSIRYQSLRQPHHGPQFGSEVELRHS
pIC50: −log10 of the molar value.
RESULT TYPE: pIC50

Example entries and their recorded answers appear below.
Fill in the blank: the reported pIC50 of O=C(O)CN1C(=O)[C@@H](N[C@@H](CCc2ccccc2)C(=O)O)CCc2ccccc21 (stereo in doubt; 4b) is ____. 8.55

State the recorded pIC50 for this entry: O=C(O)CN1C(=O)[C@@H](N[C@@H](CCc2ccccc2)C(=O)O)CCc2ccccc21 (stereo in doubt; 4e) 8.28

a: O=C(O)CN1C(=O)[C@@H](N[C@@H](CCc2ccccc2)C(=O)O)CCCc2ccccc21
b: O=C(O)CN1C(=O)[C@H](N[C@@H](CCc2ccccc2)C(=O)O)CCCc2ccccc21
Compare a and b and name the one whose reported pIC50 is smaller. The response must carry the label of the picked entry. b
(b: 7.21, a: 8.40)
